Molecular target: hEP3A/Gqi5 (Homo sapiens)
Construct: expressed in transfected cells
Sequence (P43115 1-390): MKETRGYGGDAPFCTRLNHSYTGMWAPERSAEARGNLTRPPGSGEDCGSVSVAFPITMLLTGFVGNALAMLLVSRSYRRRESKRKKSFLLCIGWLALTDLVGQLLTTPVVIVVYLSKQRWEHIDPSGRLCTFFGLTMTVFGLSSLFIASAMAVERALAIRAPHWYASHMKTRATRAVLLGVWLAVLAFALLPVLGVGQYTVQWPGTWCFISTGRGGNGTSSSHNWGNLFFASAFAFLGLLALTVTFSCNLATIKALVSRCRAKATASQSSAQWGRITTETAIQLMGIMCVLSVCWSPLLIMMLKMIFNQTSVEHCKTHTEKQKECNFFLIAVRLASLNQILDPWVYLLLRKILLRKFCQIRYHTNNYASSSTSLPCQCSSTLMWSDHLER
Experiment: FLIPR calcium signal, hEP3A/Gqi5
Assay type: cell-based
Conditions: HEK-293(EBNA) cells, read-out: Functional EC50 (nM) HEP3A
attributeMeasured: EC50 (nM)

(A) COC(=O)CCC/C=C\C[C@H]1C(=O)C[C@@H](CO)[C@@H]1/C=C/C(O)Cc1cc2ccccc2s1 (some centres unmarked) [drawing 35]
(B) O=C(O)CCC/C=C\C[C@H]1C(=O)C[C@@H](CO)[C@@H]1/C=C/C(O)Cc1cc2ccccc2s1 (single isomer, unassigned) [drawing 37]
Hi team, can someone confirm which has the larger EC50: A or B ? Thanks. Output the label that corresponds to your choice.
A

---

target: hEP1 (Homo sapiens); construct: expressed in transfected cells; assay: FLIPR calcium signal, hEP1; format: cell-based; settings: HEK-293(EBNA) cells, read-out: Functional EC50 (nM) HEP1
Sequence (P34995 whole entry): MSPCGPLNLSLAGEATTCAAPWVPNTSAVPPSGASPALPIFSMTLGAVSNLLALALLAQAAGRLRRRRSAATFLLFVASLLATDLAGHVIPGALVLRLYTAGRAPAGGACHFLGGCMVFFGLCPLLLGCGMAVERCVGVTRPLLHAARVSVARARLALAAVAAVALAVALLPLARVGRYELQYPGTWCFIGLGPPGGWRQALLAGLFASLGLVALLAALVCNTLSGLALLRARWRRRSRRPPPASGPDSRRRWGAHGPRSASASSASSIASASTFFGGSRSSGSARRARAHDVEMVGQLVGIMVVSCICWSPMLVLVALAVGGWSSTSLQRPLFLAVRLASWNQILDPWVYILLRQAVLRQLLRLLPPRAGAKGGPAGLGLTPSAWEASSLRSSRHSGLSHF
attributeMeasured: EC50

Recall the recorded EC50 for COC(=O)CCC/C=C\C[C@H]1C(=O)C[C@@H](CO)[C@@H]1/C=C/C(O)Cc1cc2ccccc2s1 (some centres unmarked) [drawing 34] with hEP1 (Homo sapiens) and state it.
> 10000 nM

What would you report for O=C(O)CCC/C=C\C[C@H]1C(=O)C[C@@H](CO)[C@@H]1/C=C/C(O)Cc1cc2ccccc2s1 (single isomer, unassigned) [drawing 36] ?
> 10000 nM

Proceed to O=C(O)CCC/C=C\C[C@H]1C(=O)C[C@@H](CO)[C@@H]1/C=C/C(O)Cc1cc2ccccc2s1 (single isomer, unassigned) [drawing 37]
9 nM

Same for C[C@@H]1CC(=O)[C@H](C/C=C\CCCC(=O)O)[C@H]1/C=C/C(O)CCc1sc2ccccc2c1Cl (some centres unmarked)
> 10000 nM

Input COC(=O)CCC/C=C\C[C@H]1C(=O)C[C@@H](CO)[C@@H]1/C=C/C(O)Cc1cc2ccccc2s1 (some centres unmarked) [drawing 35]
> 10000 nM

---

# key: entry, value: IC50
molecular target: HEP2 (Homo sapiens); construct: expressed in transfected cells; membrane fraction; assay: Radioligand binding, EP2 receptor; conditions: competition vs [3H]PGE2 5 nM, HEK-293 cell membranes
Sequence (P43116 whole entry): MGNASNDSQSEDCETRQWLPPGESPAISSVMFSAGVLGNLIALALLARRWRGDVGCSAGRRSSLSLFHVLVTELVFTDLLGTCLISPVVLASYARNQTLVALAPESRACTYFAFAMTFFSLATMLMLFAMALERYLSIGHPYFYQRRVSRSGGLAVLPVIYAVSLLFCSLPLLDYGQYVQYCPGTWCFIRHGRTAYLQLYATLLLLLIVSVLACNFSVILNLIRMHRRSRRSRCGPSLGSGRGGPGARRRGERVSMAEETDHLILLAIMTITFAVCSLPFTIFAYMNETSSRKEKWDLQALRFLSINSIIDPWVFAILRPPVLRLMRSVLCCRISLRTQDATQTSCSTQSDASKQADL

O=C(O)CCC/C=C\C[C@H]1C(=O)CC[C@@H]1/C=C/C(O)CCc1sc2ccccc2c1Cl (some centres unmarked) [drawing 40] | > 10000 nM

Which IC50 is reported for this compound? C=C[C@@H]1CC(=O)[C@H](C/C=C\CCCC(=O)O)[C@H]1/C=C/C(O)CCc1sc2ccccc2c1Cl (some centres unmarked)
> 10000 nM

---

target: hEP2/Gqs5 (Homo sapiens, UniProt P43116); construct: expressed in transfected cells; experiment: FLIPR calcium signal, hEP2/Gqs5; type: cell-based; settings: HEK-293(EBNA) cells, read-out: Functional EC50 (nM) HEP2
attributeMeasured: EC50

These solved cases illustrate the format of a correct answer.
O=C(O)CCC/C=C\C[C@H]1C(=O)C[C@@H](CO)[C@@H]1/C=C/C(O)Cc1cc2ccccc2s1 (single isomer, unassigned) [drawing 36] | > 10000 nM
O=C(O)CCC/C=C\C[C@H]1C(=O)C[C@@H](CO)[C@@H]1/C=C/C(O)Cc1cc2ccccc2s1 (single isomer, unassigned) [drawing 37] | > 10000 nM

# ---- query compound ----
Look up EC50: COC(=O)CCC/C=C\C[C@H]1C(=O)C[C@@H](CO)[C@@H]1/C=C/C(O)Cc1cc2ccccc2s1 (stereo partly drawn) [drawing 35]
> 10000 nM

---

molecular target: hEP4/Gqs5 (Homo sapiens); construct: expressed in transfected cells; assay: FLIPR calcium signal, hEP4/Gqs5; format: cell-based; settings: HEK-293(EBNA) cells, read-out: Functional EC50 (nM) HEP4
attributeMeasured: EC50 (nM)

O=C(O)CCC/C=C\C[C@H]1C(=O)C[C@@H](CO)[C@@H]1/C=C/C(O)CCc1sc2ccccc2c1Cl (stereo partly shown) [drawing 33] | 1790

(1) O=C(O)CCC/C=C\C[C@H]1C(=O)C[C@@H](CO)[C@@H]1/C=C/C(O)Cc1cc2ccccc2s1 (single isomer, unassigned) [drawing 37]
(2) O=C(O)CCC/C=C\C[C@H]1C(=O)CC[C@@H]1/C=C/C(O)CCc1sc2ccccc2c1Cl (stereo partly shown) [drawing 41]
Which value of EC50 is greater, the one for 1 or the one for 2 ? // output: label of the selected item
1

---

biological target: hEP4/Gqs5 (Homo sapiens, UniProt P35408); construct: expressed in transfected cells; experiment: FLIPR calcium signal, hEP4/Gqs5; format: cell-based; conditions: HEK-293(EBNA) cells, read-out: Functional EC50 (nM) HEP4
Sequence (P35408 whole entry): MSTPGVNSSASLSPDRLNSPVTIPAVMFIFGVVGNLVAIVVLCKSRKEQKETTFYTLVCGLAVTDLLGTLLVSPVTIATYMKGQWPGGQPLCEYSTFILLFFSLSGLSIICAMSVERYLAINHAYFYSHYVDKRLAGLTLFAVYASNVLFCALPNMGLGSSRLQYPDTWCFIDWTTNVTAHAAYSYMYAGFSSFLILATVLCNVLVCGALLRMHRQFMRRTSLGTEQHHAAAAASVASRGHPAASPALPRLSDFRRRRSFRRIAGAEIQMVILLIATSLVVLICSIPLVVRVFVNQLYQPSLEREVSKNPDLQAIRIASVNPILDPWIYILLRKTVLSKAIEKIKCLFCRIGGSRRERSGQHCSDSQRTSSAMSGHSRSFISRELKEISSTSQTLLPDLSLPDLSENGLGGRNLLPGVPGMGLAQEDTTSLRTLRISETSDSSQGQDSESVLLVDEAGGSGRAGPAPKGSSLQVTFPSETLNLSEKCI
attributeMeasured: EC50 (nM)

The following molecules have reported results that may help.
COC(=O)CCC/C=C\C[C@H]1C(=O)CC[C@@H]1/C=C/C(O)CCc1sc2ccccc2c1Cl (some centres unmarked) [drawing 38] | 515
C[C@@H]1CC(=O)[C@H](C/C=C\CCCC(=O)O)[C@H]1/C=C/C(O)CCc1sc2ccccc2c1Cl (some centres unmarked) | 153
CC[C@@H]1CC(=O)[C@H](C/C=C\CCCC(=O)O)[C@H]1/C=C/C(O)CCc1sc2ccccc2c1Cl (some centres unmarked) | 708
COC(=O)CCC/C=C\C[C@H]1C(=O)CC[C@@H]1/C=C/C(O)CCc1sc2ccccc2c1Cl (some centres unmarked) [drawing 39] | 862
C=C[C@@H]1CC(=O)[C@H](C/C=C\CCCC(=O)OC)[C@H]1/C=C/C(O)CCc1sc2ccccc2c1Cl (some centres unmarked) | 1700

(A) O=C(O)CCC/C=C\C[C@H]1C(=O)CC[C@@H]1/C=C/C(O)CCc1sc2ccccc2c1Cl (some centres unmarked) [drawing 40]
(B) C=C[C@@H]1CC(=O)[C@H](C/C=C\CCCC(=O)O)[C@H]1/C=C/C(O)CCc1sc2ccccc2c1Cl (some centres unmarked)
Field: lower recorded EC50 (choose A or B ) Lab log: write the label of the selected item as the result.
A

---

target: HEP4 (Homo sapiens, UniProt P35408); construct: expressed in transfected cells; membrane fraction; assay: Radioligand binding, EP4 receptor; conditions: competition vs [3H]PGE2 5 nM, HEK-293 cell membranes
Sequence (P35408 whole entry): as above
attributeMeasured: IC50 (nM)

O=C(O)CCC/C=C\C[C@H]1C(=O)CC[C@@H]1/C=C/C(O)CCc1sc2ccccc2c1Cl (stereo partly shown) [drawing 41] | 110
C[C@@H]1CC(=O)[C@H](C/C=C\CCCC(=O)O)[C@H]1/C=C/C(O)CCc1sc2ccccc2c1Cl (stereo partly shown) | 1800

(A) C=C[C@@H]1CC(=O)[C@H](C/C=C\CCCC(=O)O)[C@H]1/C=C/C(O)CCc1sc2ccccc2c1Cl (stereo partly shown)
(B) CC[C@@H]1CC(=O)[C@H](C/C=C\CCCC(=O)O)[C@H]1/C=C/C(O)CCc1sc2ccccc2c1Cl (stereo partly shown)
(C) O=C(O)CCC/C=C\C[C@H]1C(=O)CC[C@@H]1/C=C/C(O)CCc1sc2ccccc2c1Cl (stereo partly shown) [drawing 40]
Write the entries in order, lowest recorded IC50 first. Provide the labels, sequenced as the question asks.
C, A, B
(C: 150 nM, A: 650 nM, B: 2100 nM)

---

biological target: hEP3A/Gqi5 (Homo sapiens); construct: expressed in transfected cells; test: FLIPR calcium signal, hEP3A/Gqi5; assay type: cell-based; details: HEK-293(EBNA) cells, read-out: Functional EC50 (nM) HEP3A
Recorded EC50 values for a group of molecules are listed next.

O=C(O)CCC/C=C\C[C@H]1C(=O)CC[C@@H]1/C=C/C(O)CCc1sc2ccccc2c1Cl (stereo partly drawn) [drawing 41] | > 10000 nM
O=C(O)CCC/C=C\C[C@H]1C(=O)C[C@@H](CO)[C@@H]1/C=C/C(O)Cc1cc2ccccc2s1 (single isomer, unassigned) [drawing 36] | > 10000 nM

Proceed to the following item.
Requested read-out: EC50. Entry: C[C@@H]1CC(=O)[C@H](C/C=C\CCCC(=O)O)[C@H]1/C=C/C(O)CCc1sc2ccccc2c1Cl (stereo partly drawn)
> 10000 nM

Provenance of the data: patent US7101906B2
